- STUDY_SYSTEM: EBI2 (Homo sapiens, UniProt P32249)
- Sequence (P32249 whole entry): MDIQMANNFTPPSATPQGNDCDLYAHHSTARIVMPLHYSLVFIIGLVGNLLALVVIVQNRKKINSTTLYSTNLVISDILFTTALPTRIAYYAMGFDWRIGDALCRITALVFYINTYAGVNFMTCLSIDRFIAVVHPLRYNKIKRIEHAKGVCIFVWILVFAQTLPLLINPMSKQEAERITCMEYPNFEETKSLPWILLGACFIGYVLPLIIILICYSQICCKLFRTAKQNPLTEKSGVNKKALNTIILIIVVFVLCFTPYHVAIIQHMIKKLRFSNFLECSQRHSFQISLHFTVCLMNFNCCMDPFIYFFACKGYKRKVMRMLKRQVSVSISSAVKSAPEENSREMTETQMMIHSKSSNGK
- EXPERIMENT: Calcium mobilization
- Type: cell-based
- MEASUREMENT_CONDITIONS: read-out: Ca^2+ Fluorescence EC50; FLIPR; CHO cells stably expressing EBI2; n = 3-4, ± standard deviation
Record form. Attribute: EC50. Fill in for each entry.
Answer with a number only, understood to be in nM.

(Q) So what does the record say about EC50 for C[C@@H](CO)CCC[C@@H](C)[C@H]1CC[C@H]2[C@@H]3[C@H](O)C=C4C[C@@H](O)CC[C@]4(C)[C@H]3CC[C@]12C ?
(A) 5

(Q) If you can, please state the reported EC50 value of C[C@@H](CO)CCC[C@@H](C)[C@H]1CC[C@H]2[C@@H]3[C@@H](O)C=C4C[C@@H](O)CC[C@]4(C)[C@H]3CC[C@]12C .
(A) 310

(Q) What EC50 value was documented for this molecule, C[C@H](CCCC(C)(C)O)[C@H]1CC[C@H]2[C@@H]3CC=C4C[C@@H](O)CC[C@]4(C)[C@H]3CC[C@]12C ?
(A) 3030
